Measured values drawn from paper PMC6539525 for this set.

Measured melting point values are reported for all entries that follow.

- Structure: "Cc1ccc2c(OCc3cn(CCO[C@H]4O[C@@H]5O[C@@]6(C)CC[C@H]7[C@H](C)CC[C@@H]([C@H]4C)[C@@]57OO6)nn3)cc(=O)oc2c1C"
  Result: "91 to 93 °C"
- Structure: "Cc1cccc2c(OCc3cn(CCO[C@H]4O[C@@H]5O[C@@]6(C)CC[C@H]7[C@H](C)CC[C@@H]([C@H]4C)[C@@]57OO6)nn3)cc(=O)oc12"
  Result: "84 to 86 °C"

Consider the record given below.
Looking for the measured melting point of `Cc1cc(C)c2c(OCc3cn(CCCO[C@H]4O[C@@H]5O[C@@]6(C)CC[C@H]7[C@H](C)CC[C@@H]([C@H]4C)[C@@]57OO6)nn3)cc(=O)oc2c1` , can you help? 86 to 88 °C
